Entries and their measured % Splenocyte proliferation follow.
target: PD-L1 expressed on MDA-MB-231 cells (UniProt Q9NZQ7 19-290, limits assumed); experiment: cell-based or functional assay
Sequence (Q9NZQ7 19-290 limits assumed): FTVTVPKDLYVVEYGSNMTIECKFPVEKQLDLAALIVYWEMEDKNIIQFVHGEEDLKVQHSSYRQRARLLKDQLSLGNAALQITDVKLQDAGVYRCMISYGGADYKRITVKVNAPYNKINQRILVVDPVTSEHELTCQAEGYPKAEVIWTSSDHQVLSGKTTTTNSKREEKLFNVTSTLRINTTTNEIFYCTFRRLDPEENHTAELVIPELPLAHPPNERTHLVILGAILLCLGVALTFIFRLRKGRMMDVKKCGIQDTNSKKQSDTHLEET
Bridges are numbered along the chain shown (N, C = ends). Where no end group is shown, it is not given here. [ ]: non-standard residue; d: D form. Ahx = NCCCCCC(=O)O
Number in %, nothing else.

| binder | measure | meas-value |
| --- | --- | --- |
| SETSKSF-NH2 (lactam 2-5; N-terminus assumed; SMILES C[C@@H](O)[C@@H]1NC(=O)[C@@H](NC(=O)[C@@H](N)CO)CCC(=O)NCCCC[C@@H](C(=O)N[C@@H](CO)C(=O)N[C@@H](Cc2ccccc2)C(N)=O)NC(=O)[C@H](CO)NC1=O) [Compound 2] | % Splenocyte proliferation | 57 |
| IEMSKSQ (not fully specified; also: cyclic, bridge and C-terminus not given here) [Compound 11] | % Splenocyte proliferation | 54 |
| SNTSESFQ (cyclised between the N-terminal amino group of Ser and the alpha-carboxyl of the C-terminal Glu, which was attached to Rink amide resin through its gamma-carboxyl (gives Gln)) [Compound 14] | % Splenocyte proliferation | 55 |

Input line: What does the data say about its % Splenocyte proliferation? Entry: cyclo([Ahx]SETSKSFQ) [Compound 17]
Output line: 42

Input line: What about EETSKSF (not fully specified; also: cyclic, bridge and C-terminus not given here) [Compound 4] ?
Output line: 36
